- ASSAY_SYSTEM: human FPR2 (Homo sapiens (Human))
- Sequence (P25090 whole entry): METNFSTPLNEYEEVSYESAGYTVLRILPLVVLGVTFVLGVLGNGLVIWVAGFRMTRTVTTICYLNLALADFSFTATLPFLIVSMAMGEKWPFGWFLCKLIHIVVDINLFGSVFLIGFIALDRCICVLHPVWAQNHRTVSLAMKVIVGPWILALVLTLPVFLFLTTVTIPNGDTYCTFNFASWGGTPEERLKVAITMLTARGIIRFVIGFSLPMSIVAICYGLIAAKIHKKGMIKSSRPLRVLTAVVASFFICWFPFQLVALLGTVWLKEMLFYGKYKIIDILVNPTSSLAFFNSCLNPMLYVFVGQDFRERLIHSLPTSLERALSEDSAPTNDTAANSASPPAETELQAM
- EXPERIMENT_NOTES: FPR2 cyclic adenosine monophosphate (cAMP) assay
- Format: cell-based
- SETTINGS: CHO cells overexpressing human FPR2; forskolin 5 µM; inhibition of cAMP production; read-out: hFPR2 cAMP2 EC50
EC50 values for the compounds below.
Record the value in nM, omitting the unit from your answer.

// known answers, use as guide
INSERT INTO results (compound, recorded_endpoint, scale_unit, observed_measurement) VALUES
  ('COc1cc(F)c([C@@H]2CN(c3cccn(CC(O)C(F)(F)F)c3=O)C(=O)[C@H]2NC(=O)c2ccc(OC(F)(F)F)cc2)c(F)c1 (stereo partly drawn) [Example 155]', 'EC50', 'nM', 4),
  ('COc1cc(F)c([C@@H]2CN(c3cccn(C)c3=O)C(=O)[C@H]2NC(=O)c2ccc(OC(F)F)cc2)c(F)c1', 'EC50', 'nM', 3.8);

Input: Request the reported EC50 associated with "COc1ccc([C@@H]2CN(c3c(C)ccn(C4COC4)c3=O)C(=O)[C@H]2NC(=O)c2ccc(OC(F)(F)F)cc2)cc1"
Output: 1.5

----------
- ASSAY_SYSTEM: human FPR1 (Homo sapiens (Human), UniProt P21462)
- Sequence (P21462 whole entry): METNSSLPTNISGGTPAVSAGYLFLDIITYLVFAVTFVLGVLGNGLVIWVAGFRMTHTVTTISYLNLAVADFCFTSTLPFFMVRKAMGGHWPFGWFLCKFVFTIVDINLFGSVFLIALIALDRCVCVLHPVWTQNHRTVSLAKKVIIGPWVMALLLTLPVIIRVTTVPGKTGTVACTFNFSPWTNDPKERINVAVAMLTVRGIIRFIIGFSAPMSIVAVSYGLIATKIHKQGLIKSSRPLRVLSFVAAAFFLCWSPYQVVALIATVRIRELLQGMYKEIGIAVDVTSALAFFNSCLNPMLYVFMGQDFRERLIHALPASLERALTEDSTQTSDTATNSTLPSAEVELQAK
- EXPERIMENT_NOTES: FPR1 cyclic adenosine monophosphate (cAMP) assay
- Assay type: cell-based
- SETTINGS: CHO cells overexpressing human FPR1; forskolin 10 µM; inhibition of cAMP production; read-out: hFPR1 cAMP EC50
Lab note: compare EC50 with 50 nM, writing yes if less and no if equal or more.

INSERT INTO results (compound, cat) VALUES
  ('CCn1cccc(N2C[C@@H](c3c(F)cc(OC)cc3F)[C@H](NC(=O)c3ccc(OC(F)F)cc3)C2=O)c1=O [Example 169]', 'yes'),
  ('COc1cc(F)c([C@@H]2CN(c3ncccc3C(F)(F)F)C(=O)[C@H]2NC(=O)C2CCc3cc(OC)ccc3C2)c(F)c1 (some centres unmarked) [Example 349]', 'no'),
  ('COc1cc(F)c([C@@H]2CN(c3nc(C)ccc3C(F)(F)F)C(=O)[C@H]2NC(=O)c2ccc(OC(F)F)cc2)c(F)c1 [Example 247]', 'no'),
  ('CCn1cc2c(c(N3C[C@@H](c4c(F)cc(OC)cc4F)[C@@H](NC(=O)c4ccc(OC(F)F)cc4)C3=O)c1=O)CCCC2 [Example 664]', 'no'),
  ('COCC(CO)n1ccc(C)c(N2C[C@@H](c3c(F)cc(OC)cc3F)[C@H](NC(=O)c3ccc(OC(F)(F)F)cc3)C2=O)c1=O (some centres unmarked) [Example 325]', 'yes');

Input: # check: EC50 < 50 nM for COc1cc(F)c([C@@H]2CN(c3cccn(CC(C)(CO)CO)c3=O)C(=O)[C@H]2NC(=O)c2ccc(OC(F)F)cc2)c(F)c1 [Example 218]
Output: no

Input: Answer whether the compound COCC(CO)n1cccc(N2C[C@@H](c3ccc(Cl)cc3)[C@H](NC(=O)c3ccc(Cl)cc3)C2=O)c1=O (some centres unmarked) [Example 414] has EC50 strictly less than 50 nM
Output: yes

Input: Determine whether this compound shows EC50 lower than 50 nM (ties excluded): COc1cc(F)c([C@@H]2CN(c3cccc(=O)n3C)C(=O)[C@H]2NC(=O)c2ccc(OC(F)F)cc2)c(F)c1 [Example 10]
Output: no

Every entry's value here was drawn from patent US20230348426A1.
